molecular target: MLK-7 (Homo sapiens); construct: GST; His tag; assay: In vitro assay of purified MLK-7 kinase activity (33P transfer from ATP to myelin basic protein); details: recombinant GST-tagged MLK-7 at 1 nm, 30 uM ATP, 5 uM MBP substrate, 2 hours room temperature; read-out: MLK7 IC50
Sequence (Q9NYL2 1-455 isoform Q9NYL2-2): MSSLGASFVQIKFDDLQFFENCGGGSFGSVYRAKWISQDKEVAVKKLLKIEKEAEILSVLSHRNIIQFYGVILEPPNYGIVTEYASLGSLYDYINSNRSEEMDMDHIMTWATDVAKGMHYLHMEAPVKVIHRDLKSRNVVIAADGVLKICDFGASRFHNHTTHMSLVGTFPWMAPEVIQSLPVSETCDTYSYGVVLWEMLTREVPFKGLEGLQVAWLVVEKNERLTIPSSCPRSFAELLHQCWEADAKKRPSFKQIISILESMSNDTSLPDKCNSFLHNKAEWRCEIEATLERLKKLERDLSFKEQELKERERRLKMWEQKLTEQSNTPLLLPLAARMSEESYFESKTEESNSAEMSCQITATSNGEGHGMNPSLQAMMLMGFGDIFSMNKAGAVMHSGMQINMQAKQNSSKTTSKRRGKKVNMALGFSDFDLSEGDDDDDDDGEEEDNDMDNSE
pIC50: −log10 of the molar value.
Reported values of pIC50 for individual entries

Worked cases, pIC50 given:
| COMPOUND | pIC50 |
| --- | --- |
| c1ccc(-c2nn3c(c2-c2ccnc4cc(-c5ccc(OCCN6CCCC6)cc5)ccc24)CCC3)nc1 [Example 111, Ditrifluoroacetic Acid] | ≥ 7.00 |
| c1ccc(-c2nn3c(c2-c2ccnc4cc(-c5cnccn5)ccc24)CCC3)nc1 [Example 67, Ditrifluoroacetic Acid] | ≥ 6.00 |
| CC(=O)c1ccc(-c2ccc3c(-c4c(-c5ccccn5)nn5c4CCC5)ccnc3c2)cc1 [Example 28, Trifluoroacetic Acid] | ≥ 7.00 |
| O=C(O)C(F)F.c1ccc(-c2nn3c(c2-c2ccnc4cc(-c5nc6ccccc6[nH]5)ccc24)CCC3)nc1 [Example 87] | ≥ 7.00 |
| Clc1ccc(-c2ccc3c(-c4c(-c5ccccn5)nn5c4CCC5)ccnc3c2)cc1Cl [Example 55] | ≥ 6.00 |
| c1ccc(-c2nn3c(c2-c2ccnc4cc(-c5nccs5)ccc24)CCC3)nc1 [Example 66, Trifluoroacetic Acid] | ≥ 7.00 |
| c1ccc(-c2nn3c(c2-c2ccnc4cc(-c5ccc(OCCCN6CCCC6)cc5)ccc24)CCC3)nc1 [Example 115, Ditrifluoroacetic Acid] | ≥ 7.00 |
| CC(C)(C)OC(=O)N1CCN(c2ccc3c(-c4c(-c5ccccn5)nn5c4CCC5)ccnc3c2)CC1 [Example 102] | ≥ 5.00 |
| NC(=O)COc1ccc(-c2ccc3c(-c4c(-c5ccccn5)nn5c4CCC5)ccnc3c2)cc1 [Example 117, Trifluoroacetic Acid] | ≥ 7.00 |
| CN(C)C(=O)c1ccc(-c2ccc3c(-c4c(-c5ccccn5)nn5c4CCC5)ccnc3c2)cc1 [Example 136] | ≥ 7.00 |

## Input Fill blank: measured pIC50 of the compound c1ccc(-c2nn3c(c2-c2ccnc4cc(-c5cc6ccccc6o5)ccc24)CCC3)nc1 [Example 48, Trifluoroacetic Acid] is ____.
## Output ≥ 7.00

## Input What do you get for NC(=O)CNC(=O)c1ccc(-c2ccc3c(-c4c(-c5ccccn5)nn5c4CCC5)ccnc3c2)cc1 [Example 125] ?
## Output ≥ 7.00
